Data credit: patent US20120046353A1

# Tgt: UniProt A9LRT3
# Assay name: biochemical
# Design: species or system avian influenza virus A/chicken/Korea/01310/2001(H9N2)
# Particulars: IC50 for neuraminidase of avian influenza virus (H9N2)
Parameter measured: IC50

| Molecule | IC50 |
| --- | --- |
| CCOC(=O)C1=C[C@@H](OC(CC)CC)[C@H](NC(C)=O)[C@@H](N)C1 [Tamiflu, oseltamivir phosphate, reference compound] | 0.0136 µM |
| Cc1c(O)cc(O)c2c1OC(c1ccccc1)CC2=O (stereo not shown) | > 555 µM |
| COc1cc(O)c(C)c2c1C(=O)CC(c1ccccc1)O2 (stereo not shown) [Compound 11, 7-hydroxy-5-methoxy-8-methylflavanone] | > 528 µM |

Which IC50 reading was recorded for the molecule COc1c(C)c(O)c2c(c1C)OC(c1ccccc1)CC2=O (stereo not shown) ?
> 503 µM
